Origin of the recorded values: ChEMBL document CHEMBL4138317

- study.target: Neuronal calcium sensor 1 (Homo sapiens, UniProt P62166)
- Sequence (P62166 2-190 limits assumed): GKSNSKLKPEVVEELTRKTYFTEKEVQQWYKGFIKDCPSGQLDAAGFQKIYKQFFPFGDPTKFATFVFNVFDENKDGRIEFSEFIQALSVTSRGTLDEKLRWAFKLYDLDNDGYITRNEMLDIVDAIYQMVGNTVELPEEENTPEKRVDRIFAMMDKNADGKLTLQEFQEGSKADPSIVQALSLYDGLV
- protocol.notes: Binding affinity to human NCS1 expressed in Escherichia coli BL21 Star (DE3) by fluorescence emission assay
- test.context: read-out: Kd(app)
outcome.measure: Kd
Please answer using the number first and the unit second.

compound.string: COc1ccccc1C(=O)Nc1nc2cc(C(F)(F)F)ccc2s1
Kd: 11.5 µM

So what does the record say about Kd for O=C(CC(c1ccccc1)c1ccccc1)Nc1nc2ccccc2s1 ?
1.25 µM
